B1: Pistol ribozyme (parent)
chain: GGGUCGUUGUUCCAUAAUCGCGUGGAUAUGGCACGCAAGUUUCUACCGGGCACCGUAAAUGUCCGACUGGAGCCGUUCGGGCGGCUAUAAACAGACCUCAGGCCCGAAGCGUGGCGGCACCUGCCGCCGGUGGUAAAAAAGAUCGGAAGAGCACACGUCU

- Variants of: B1
- Protocol Details: aptazyme ON/OFF ratio, guanine; higher = stronger switching; co-transcriptional cleavage with and without guanine
Reported Endpoint: aptazyme ON/OFF ratio
Lab note: jot down the number only; don't add units.

INSERT INTO assay_data (variant_designation, measured_value) VALUES
  ('U7C U8G C12G', 1.29),
  ('U7C U8G G9U U10G U11G C12U C13U', 1.26),
  ('U7G U8A G9U U10G C13U', 1.21),
  ('U7G G9A U10C U11G C12A C13G', 1.1),
  ('U7A U8C G9A U10C U11G C12A C13U', 1.14);

get_value(item= U7C U8A G9C U11G C13U , readout=aptazyme ON/OFF ratio) returns 1.15

Reported aptazyme ON/OFF ratio ( U7C U8G G9C U10C C12U C13U ) = 1.09

Record summary for U8G G9C U10C U11G C12A C13G : reported aptazyme ON/OFF ratio = 1.05

Measured aptazyme ON/OFF ratio of U8G U10C U11A C12U C13A : 1.14

Per the record, U7C G9A U10G U11A has aptazyme ON/OFF ratio of 1.06

Recorded aptazyme ON/OFF ratio (variant U8G U10G C12G ): 1.3

The recorded aptazyme ON/OFF ratio for U7C U8C G9U U10C U11A C12A C13G is 1.17

U8C U10C U11C yielded aptazyme ON/OFF ratio of 1.85

Per the record, U7A U8C G9U U10A C13A has aptazyme ON/OFF ratio of 1.18

GET /value?item= U7G U8G U10A U11A C12A C13A &field=aptazyme ON/OFF ratio returns 1.31

Please fill in: aptazyme ON/OFF ratio reported for U7A U8C U10G U11C C12A C13U = 1.39

Measured aptazyme ON/OFF ratio of U7A U8C G9U U10A U11A : 1.37
